Values compiled from paper PMC8947478.

Assay: Pharmacokinetic analysis of plasma after oral PCLX-001 (UHPLC-MS, two-compartment model)
Type: in vivo, human
Settings: human; patient, 20 mg oral, Day 1 single dose, plasma
Observed property: Tmax (h)
Give bare numbers, in h.

[in] Could you tell me which Tmax is on file for Cc1c(NS(=O)(=O)c2c(Cl)cc(-c3ccnc(N4CCNCC4)c3)cc2Cl)c(CC(C)C)nn1C [PCLX-001] ?
[out] 1.1

====

Test: Pharmacokinetic analysis of plasma after oral PCLX-001 (UHPLC-MS, two-compartment model)
Assay type: in vivo, human
Details: human, plasma, po, 20 mg, patient, 20 mg oral, first dose (Day 1), plasma; read-out: AUC0–∞
Observed property: AUC(0-inf) (ng·h/mL)
Numbers only, in ng·h/mL.

[in] Need AUC(0-inf) of Cc1c(NS(=O)(=O)c2c(Cl)cc(-c3ccnc(N4CCNCC4)c3)cc2Cl)c(CC(C)C)nn1C , thanks.
[out] 2360
